Assay: Whole blood stability
Conditions: human
observable: half-life at 5 µM (h)
Please state the figure in h; there is no need to write the unit.

Task item: Find the recorded half-life at 5 µM belonging to CC(C)OC(=O)C(C)(O)C(=O)Nc1cnc(C#N)c(C(F)(F)F)c1 (centres unmarked) [Compound 013] and report it.
Reply: 5.82

Task item: Can you check CCOC(=O)[C@@](C)(O)C(=O)Nc1cnc(C#N)c(SC)c1 [Compound 016A] next?
Reply: 2.2

* * *

Field: half-life at 1 µM. Provide a value for each of the compounds that follow.
Test: Metabolic stability assay in liver microsomes
Assay type: in vitro ADME
Conditions: human liver microsomes, pH 7.4; human liver microsome 0.5 mg/mL, 1 mM NADPH, compound 1 µM, 37 °C; read-out: In vitro T1/2
Please state the figure in min; there is no need to write the unit.

Task item: Find the recorded half-life at 1 µM belonging to `CCOC(=O)[C@@](C)(O)C(=O)Nc1cnc(C#N)c(C(F)(F)F)c1` and report it.
Reply: 42.6

Task item: Can you check `CCOC(=O)[C@](C)(O)C(=O)Nc1cnc(C#N)c(C(F)(F)F)c1` next?
Reply: 22.9

Task item: Can you check CCOC(=O)C(O)(C(=O)Nc1cnc(C#N)c(C(F)(F)F)c1)C(F)(F)F (centres unmarked) next?
Reply: 39.1

Task item: Can you check CCOC(=O)C(C)(O)C(=O)Nc1cnc(C#N)c(SC)c1 (centres unmarked) next?
Reply: 13.6

Task item: Can you check CCOC(=O)[C@@](C)(O)C(=O)Nc1cnc(C#N)c(SC)c1 [Compound 016A] next?
Reply: 15.1

* * *

Experiment: in vitro
Settings: human, blood
observable: half-life at 5 µM (h)
Please state the figure in h; there is no need to write the unit.

Task item: Find the recorded half-life at 5 µM belonging to CCOC(=O)C(C)(O)C(=O)Nc1cnc(C#N)c(SC)c1 (single isomer, unassigned) [Compound 016B] and report it.
Reply: 1.69

* * *

Assay: Metabolic stability assay in liver microsomes
Type: in vitro ADME
Conditions: human liver microsomes, pH 7.4; human liver microsome 0.5 mg/mL, 1 mM NADPH, compound 1 µM, 37 °C; read-out: In vitro Clint
observable: microsomal CLint at 1 µM (µL/min/mg)
Please state the figure in µL/min/mg; there is no need to write the unit.

Task item: Find the recorded microsomal CLint at 1 µM belonging to CCOC(=O)C(O)(C(=O)Nc1cnc(C#N)c(C(F)(F)F)c1)C(F)(F)F (centres unmarked) [Compound 008] and report it.
Reply: 35.5

Task item: Can you check CCOC(=O)[C@@](C)(O)C(=O)Nc1cnc(C#N)c(C(F)(F)F)c1 [Compound 002] next?
Reply: 32.5

Task item: Can you check CCOC(=O)[C@](C)(O)C(=O)Nc1cnc(C#N)c(C(F)(F)F)c1 [Compound 003] next?
Reply: 60.4

Task item: Can you check CCOC(=O)[C@@](C)(O)C(=O)Nc1cnc(C#N)c(SC)c1 [Compound 016A] next?
Reply: 91.8

Task item: Can you check CCOC(=O)C(C)(O)C(=O)Nc1cnc(C#N)c(SC)c1 (centres unmarked) [Compound 016] next?
Reply: 102

* * *

Test: Metabolic stability assay in liver microsomes
Format: in vitro ADME
Conditions: microsomes, pH 7.4; human liver microsome 0.5 mg/mL, 1 mM NADPH, compound 1 µM, 37 °C; read-out: In vitro T1/2
observable: half-life at 1 µM (min)
Please state the figure in min; there is no need to write the unit.

Task item: Find the recorded half-life at 1 µM belonging to CCOC(=O)C(C)(O)C(=O)Nc1cnc(C#N)c(SC)c1 (single isomer, unassigned) [Compound 016B] and report it.
Reply: 15.7
